Reported glycan array binding signal (z-score) by item:
- Test System: Fuc(a1-2)[GalNAc(a1-3)]Gal(b1-4)[Fuc(a1-3)]GlcNAc(b1-3)GalNAc
- Assay Overview: glycan array binding signal (z-score within array); higher = stronger binding
- Cond: glycan notation: IUPAC condensed, linker removed
This excerpt belongs to a sample that is enriched for the strongest signals.
Give only the figure.

As a guide, the following entries are already answered.
Binder	glycan array binding signal (z-score)
AT3G44510(29) (Arabidopsis thaliana), F4J341 (protein) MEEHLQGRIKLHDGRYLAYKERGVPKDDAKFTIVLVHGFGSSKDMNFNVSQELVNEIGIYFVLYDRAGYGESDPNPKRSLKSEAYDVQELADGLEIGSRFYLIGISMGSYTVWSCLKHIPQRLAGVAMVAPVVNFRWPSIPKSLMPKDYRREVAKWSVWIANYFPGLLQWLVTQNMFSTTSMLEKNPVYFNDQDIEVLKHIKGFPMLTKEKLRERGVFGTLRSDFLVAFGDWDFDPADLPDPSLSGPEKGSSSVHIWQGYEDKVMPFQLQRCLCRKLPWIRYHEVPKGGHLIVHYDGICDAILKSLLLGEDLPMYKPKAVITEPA	6.03
AT1G15820(NC) (Arabidopsis thaliana) (protein) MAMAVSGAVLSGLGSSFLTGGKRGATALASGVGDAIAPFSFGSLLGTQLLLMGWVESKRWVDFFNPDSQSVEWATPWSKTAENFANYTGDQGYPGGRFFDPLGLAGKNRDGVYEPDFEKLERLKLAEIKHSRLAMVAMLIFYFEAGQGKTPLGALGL	4.75
Gal 9 (Homo sapiens), O00182 (protein) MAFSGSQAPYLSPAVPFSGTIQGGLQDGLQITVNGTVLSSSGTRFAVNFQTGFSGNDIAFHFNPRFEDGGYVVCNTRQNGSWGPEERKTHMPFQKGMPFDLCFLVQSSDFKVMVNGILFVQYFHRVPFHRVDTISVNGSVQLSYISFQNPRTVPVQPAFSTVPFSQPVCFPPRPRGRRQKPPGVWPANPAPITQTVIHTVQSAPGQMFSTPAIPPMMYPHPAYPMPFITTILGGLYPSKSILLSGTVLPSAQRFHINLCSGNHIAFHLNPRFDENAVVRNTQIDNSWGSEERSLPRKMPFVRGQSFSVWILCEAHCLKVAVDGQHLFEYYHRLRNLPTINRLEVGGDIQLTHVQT	-0.288
VLRB.aGPA.23-GCN4-biotin (Petromyzon marinus) (protein) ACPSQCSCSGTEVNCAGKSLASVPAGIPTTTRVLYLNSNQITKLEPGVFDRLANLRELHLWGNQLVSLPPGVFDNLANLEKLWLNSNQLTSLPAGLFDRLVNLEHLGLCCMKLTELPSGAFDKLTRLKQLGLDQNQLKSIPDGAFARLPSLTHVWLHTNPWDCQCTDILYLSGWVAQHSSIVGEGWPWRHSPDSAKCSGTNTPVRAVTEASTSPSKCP	0.368
XL-35 (Xenopus laevis) (protein) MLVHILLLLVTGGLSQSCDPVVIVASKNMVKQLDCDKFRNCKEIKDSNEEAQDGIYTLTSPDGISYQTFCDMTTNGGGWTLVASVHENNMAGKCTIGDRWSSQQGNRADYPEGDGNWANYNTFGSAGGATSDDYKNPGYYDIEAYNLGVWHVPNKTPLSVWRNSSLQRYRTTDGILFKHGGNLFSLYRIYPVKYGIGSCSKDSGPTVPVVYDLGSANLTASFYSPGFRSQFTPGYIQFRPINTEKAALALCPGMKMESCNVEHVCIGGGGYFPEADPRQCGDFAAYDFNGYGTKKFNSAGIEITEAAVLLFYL	20.3

Request the reported glycan array binding signal (z-score) associated with EPL1 (Trichoderma atroviride), A0PCX2 (protein) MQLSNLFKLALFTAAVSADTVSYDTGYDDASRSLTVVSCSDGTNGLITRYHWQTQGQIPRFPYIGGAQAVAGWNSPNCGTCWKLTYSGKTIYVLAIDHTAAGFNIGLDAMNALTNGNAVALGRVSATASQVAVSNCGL
21.1

Request the reported glycan array binding signal (z-score) associated with DBA (Dolichos biflorus) (protein) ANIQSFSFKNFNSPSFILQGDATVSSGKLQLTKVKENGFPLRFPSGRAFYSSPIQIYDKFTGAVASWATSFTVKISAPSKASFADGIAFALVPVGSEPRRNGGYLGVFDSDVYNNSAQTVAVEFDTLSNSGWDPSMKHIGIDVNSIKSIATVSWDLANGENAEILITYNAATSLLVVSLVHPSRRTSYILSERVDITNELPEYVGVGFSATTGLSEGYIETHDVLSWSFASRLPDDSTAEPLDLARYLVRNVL
0.333

Request the reported glycan array binding signal (z-score) associated with HPA (Helix pomatia), Q2F1K8 (protein) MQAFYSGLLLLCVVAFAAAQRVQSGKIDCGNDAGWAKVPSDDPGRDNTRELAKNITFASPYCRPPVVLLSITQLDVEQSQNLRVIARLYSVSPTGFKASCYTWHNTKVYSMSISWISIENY
0.306

Request the reported glycan array binding signal (z-score) associated with Clrb (Mus musculus) (protein) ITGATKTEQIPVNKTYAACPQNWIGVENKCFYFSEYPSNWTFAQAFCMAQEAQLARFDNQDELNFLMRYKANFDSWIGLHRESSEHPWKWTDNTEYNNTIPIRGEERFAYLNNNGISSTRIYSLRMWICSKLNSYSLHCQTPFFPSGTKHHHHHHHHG
-0.299

Request the reported glycan array binding signal (z-score) associated with LFA (Limax flavus) (protein) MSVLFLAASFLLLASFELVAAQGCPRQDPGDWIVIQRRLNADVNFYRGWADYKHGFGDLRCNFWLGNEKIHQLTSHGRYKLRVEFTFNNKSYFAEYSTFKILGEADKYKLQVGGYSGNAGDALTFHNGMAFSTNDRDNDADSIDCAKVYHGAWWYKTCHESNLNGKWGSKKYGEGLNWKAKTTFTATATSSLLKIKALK
-0.214

All values here come from the supplement of paper PMC8728848.
